Cited source: PubChem BioAssay (NCI)

Measured TGI accompanies every entry in the list below.
Test system: SK-OV-3 ovarian
Assay: NCI tumour cell line growth inhibition, 48 h
PARAMETER_MEASURED: TGI

| COMPOUND | PARAMETER_MEASURED | VAL |
| --- | --- | --- |
| COc1ccc(C(=O)c2[nH]c(Nc3ccc(Cl)cc3)c(C(=S)Nc3ccccc3)c2N)cc1 | TGI | > 100 µM |
| CN(C)CCCN1c2ccccc2CCc2ccc([N+](=O)[O-])cc21 | TGI | > 100 µM |
| CC(C)(C)c1cc(C2COC(c3cc(C(C)(C)C)c(O)c(C(C)(C)C)c3)CO2)cc(C(C)(C)C)c1O (stereo not given) | TGI | > 100 µM |
| CC1=CC(=O)C(O)C2(C)C1CC(O)C13COC4(C)C(OC(=O)C41)C(O)C23 (stereo not given) | TGI | 95.7 µM |
| CCN1C(=O)N(CC)C2C1NN=c1s/c(=C\c3ccccc3Br)c(=O)n12 (stereo not given) | TGI | > 100 µM |
| CN(CC(N)=O)C(=O)N(CCCl)N=O | TGI | > 100 µM |
| CC(C)c1c2[nH]c3ccccc3c2c(C(C)C)c2[nH]c3ccccc3c12 | TGI | > 100 µM |
| BrCc1ccc(CBr)cc1 | TGI | 7.24 µM |
| CCOC(=O)c1ccc(C(=O)C(C(C)=O)C(=O)OC(C)(C)C)[nH]1 (stereo not given) | TGI | > 100 µM |
| CC[C@@H](/C=C\CCC(=O)C[C@H](O)CCC=C(C)C)O[Si](C(C)C)(C(C)C)C(C)C | TGI | > 100 µM |
